- MEASURED TARGET: human KEAP1 (N-term, residues 321-609) (Homo sapiens, UniProt Q14145);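 further: fluorescence polarization competition assay of Kelch domain binding to NRF2, 12-point 1:3 dilution series from 10 µM, read after 1 h at room temperature, floor 10 nM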
- Sequence (Q14145 321-609): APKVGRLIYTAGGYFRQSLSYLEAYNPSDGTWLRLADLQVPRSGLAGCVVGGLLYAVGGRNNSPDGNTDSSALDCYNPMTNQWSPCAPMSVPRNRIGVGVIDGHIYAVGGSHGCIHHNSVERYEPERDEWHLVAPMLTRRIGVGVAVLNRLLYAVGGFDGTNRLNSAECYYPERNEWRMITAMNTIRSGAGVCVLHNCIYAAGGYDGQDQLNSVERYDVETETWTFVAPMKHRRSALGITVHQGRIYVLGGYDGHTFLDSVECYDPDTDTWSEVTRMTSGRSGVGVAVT
- PROCEDURE DETAILS: biochemical
pIC50: −log10 of the molar value.
EXPERIMENTAL READOUT: pIC50

C[C@]1(C(=O)O)CCCC[C@H]1C(=O)N1CCc2c(Cl)ccc(OCc3cncnc3C(F)(F)F)c2[C@H]1CN1CC2(CC2)CC1=O [Example 171]: 8.19
C[C@]1(C(=O)O)CCCC[C@H]1C(=O)N1CCc2c(Cl)ccc(OCc3nnc4n3CCC4)c2[C@H]1CN1CC2(CC2)CC1=O [Example 183]: 8.27
O=C(O)[C@H]1CCCC[C@H]1C(=O)N1CCc2c(Br)ccc(OCc3ccn4ccnc4c3)c2[C@H]1CN1Cc2ccccc2C1=O [Example 32]: 8.22
